IC50 values, listed per item
Biological target: Human LDHA (Homo sapiens (Human), UniProt P00338)
Assay: human LDHA primary biochemical assay (resazurin/diaphorase coupled, fluorescence)
Conditions: LDHA inhibitory activity, activity level based on IC50 (Table 7)

# IC50 of CCOC(=O)c1csc(-n2nc(-c3ccc(F)c(-c4ccc(F)cc4)c3)c(Cc3ccc(S(N)(=O)=O)cc3F)c2CC2CC2)n1 = 1000 to 57000 nM

# IC50 of NS(=O)(=O)c1ccc(Cc2c(-c3cccc4cc(F)ccc34)nn(-c3nc(C(=O)O)cs3)c2O)cc1 = 1000 to 57000 nM

# IC50 of COc1cc(-c2cc(-c3nn(-c4nc(C(=O)O)cs4)cc3Cc3ccc(S(N)(=O)=O)cc3)ccc2F)ccc1F = < 100 nM

###

pIC50 values, listed per item
Target: Human LDHA (Homo sapiens (Human))
Assay: human LDHA primary biochemical assay (resazurin/diaphorase coupled, fluorescence)
Details: LDHA inhibitory activity, activity level based on IC50 (Table 7)
pIC50: −log10 of the molar value.

Here is how some compounds turned out for pIC50.
- compound: "COc1c(Cc2ccc(S(N)(=O)=O)cc2)c(-c2ccc(F)c(F)c2)nn1-c1nc(C(=O)O)cs1 [Compound 455]"
  pIC50: "6.00 to 7.00"
- compound: "Cc1cc(C)cc(-c2cc(-c3nn(-c4nc(C(=O)O)cs4)cc3Cc3ccc(S(N)(=O)=O)cc3)ccc2C)c1 [Compound 495]"
  pIC50: "6.00 to 7.00"

# pIC50 of Cc1ccc(-c2nn(-c3nc(C(=O)O)cs3)cc2Cc2ccc(S(N)(=O)=O)cc2)cc1-c1ccc(F)cc1 [Compound 498] = 6.00 to 7.00

# pIC50 of COc1cccc(-c2cccc(-c3nn(-c4nc(C(=O)O)cs4)cc3Cc3ccc(S(N)(=O)=O)cc3)c2)c1 [Compound 521] = > 7.00

# pIC50 of C#Cc1cc(-c2nn(-c3nc(C(=O)O)cs3)c(CC3CC3)c2Cc2ccc(S(N)(=O)=O)c(F)c2)ccc1F [Compound 410] = > 7.00

# pIC50 of N[S+](=O)([O-])c1ccc(Cc2c(-c3cccc(C#CC4CCCC4)c3)nn(-c3nc(C(=O)O)cs3)c2CC2CC2)cc1F [Compound 432] = > 7.00

###

Target: Human LDHA (Homo sapiens (Human), UniProt P00338)
Assay: human LDHA primary biochemical assay (resazurin/diaphorase coupled, fluorescence)
Settings: LDHA inhibitory activity, activity level based on IC50 (Table 7)
pIC50: −log10 of the molar value.
value_kind: pIC50

Here is how some molecules turned out for pIC50.
- molecule: "CC(C)(C)/C=C/c1cc(-c2nn(-c3nc(C(=O)O)cs3)c(CC3CC3)c2Cc2ccc([S+](N)(=O)[O-])c(F)c2)ccc1F [Compound 448]"
  pIC50: "> 7.00"
- molecule: "Cc1ccc(-c2cc(-c3nn(-c4nc(C(=O)O)cs4)c(CC4CC4)c3Cc3ccc(S(N)(=O)=O)c(Cl)c3)ccc2F)s1 [Compound 407]"
  pIC50: "> 7.00"
- molecule: "Cc1cc(-c2ccc(F)cc2)cc(-c2nn(-c3nc(C(=O)O)cs3)c(CC3CC3)c2Cc2ccc(S(N)(=O)=O)cc2)c1 [Compound 506]"
  pIC50: "> 7.00"
- molecule: "CN1CCC(c2cc(-c3nn(-c4nc(C(=O)O)cs4)c(CC4CC4)c3Cc3ccc([S+](N)(=O)[O-])c(F)c3)ccc2F)CC1 [Compound 390]"
  pIC50: "> 7.00"
- molecule: "COc1ccc(-c2cc(-c3nn(-c4nc(C(=O)O)cs4)cc3Cc3ccc(S(N)(=O)=O)cc3)ccc2C)cc1F [Compound 494]"
  pIC50: "6.00 to 7.00"

# pIC50 of CCOC(=O)c1csc(-n2nc(-c3ccc(F)c(C#Cc4ccc(C)s4)c3)c(Cc3ccc(S(N)(=O)=O)c(F)c3)c2CC2CC2)n1 [Compound 447] = < 4.24

# pIC50 of NS(=O)(=O)c1ccc(Cc2c(-c3cccc4ccccc34)nn(-c3nc(C(=O)O)cs3)c2O)cc1 [Compound 451] = 4.24 to 6.00

# pIC50 of NS(=O)(=O)c1ccc(Cc2c(C3CC3)nn(-c3nc(C(=O)O)cs3)c2-c2cccc(-c3cccc(F)c3)c2)c(F)c1 [Compound 358] = 4.24 to 6.00
